measured_target: recombinant human Muscarinic M1 receptor (Homo sapiens, UniProt P11229)
Sequence (P11229 whole entry): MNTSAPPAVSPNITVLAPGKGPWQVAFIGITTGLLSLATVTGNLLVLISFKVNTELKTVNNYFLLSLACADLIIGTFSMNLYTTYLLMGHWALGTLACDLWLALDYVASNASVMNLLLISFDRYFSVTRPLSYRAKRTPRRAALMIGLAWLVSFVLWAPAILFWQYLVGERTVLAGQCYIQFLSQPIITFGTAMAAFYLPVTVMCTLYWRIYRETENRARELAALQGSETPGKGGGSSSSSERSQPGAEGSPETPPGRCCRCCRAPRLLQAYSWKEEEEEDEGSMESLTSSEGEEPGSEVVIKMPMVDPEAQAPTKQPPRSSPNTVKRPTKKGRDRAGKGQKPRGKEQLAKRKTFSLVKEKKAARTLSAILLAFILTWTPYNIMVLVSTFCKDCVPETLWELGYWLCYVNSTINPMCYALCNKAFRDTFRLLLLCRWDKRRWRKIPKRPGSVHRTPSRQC
test: Allosteric potency EC50 for muscarinic M1 receptor, CHO pCRE-Luc reporter cell-based assay with EC20 of acetylcholine
experimental_conditions: CHO cells, luciferase activity, in presence of EC20 of acetylcholine, 4 hours
value_kind: EC50 (nM)

[[record]]
compound = "Cn1cc(-c2ccc(Cc3cc(C(=O)N[C@H]4CCOC[C@@H]4O)nn4cccc34)cc2)cn1 (stereo in doubt)"
value_kind = "EC50"
experimental_result = 692

[[record]]
compound = "O=C(NC1CCOCC1)c1cc(Cc2ccc(Cl)cc2)c2cccn2n1"
value_kind = "EC50"
experimental_result = 976

[[record]]
compound = "O=C(N[C@H]1CCCC[C@@H]1O)c1cc(Cc2ccc(-c3ccc(F)cc3)cc2)c2cccn2n1 (stereo in doubt)"
value_kind = "EC50"
experimental_result = 1020

[[record]]
compound = "CCC(CO)NC(=O)c1cc(Cc2ccc(Br)cc2)c2cccn2n1 (centres unmarked)"
value_kind = "EC50"
experimental_result = 1000

[[record]]
compound = "O=C(N[C@H]1CCCC[C@@H]1O)c1cc(Cc2cccc(F)c2)c2cccn2n1"
value_kind = "EC50"
experimental_result = 847

